System: U2OS
test.name: Multiplex assay against U2OS
Type: toxicity, cell-based
protocol.conditions: human, 12 h, 10 µM, compound concentration 10 uM, replicate 1
Total Cell Count values by entry
Give a plain numeric answer without units written out.

Completed entries (count: 4):
| compound | target.under.test | Total Cell Count |
| --- | --- | --- |
| CCOc1cc2ncc(C#N)c(Nc3ccc(OCc4cccc(F)c4)c(Cl)c3)c2cc1NC(=O)/C=C/CN(C)C | U2OS | 210 |
| CCn1c(-c2nonc2N)nc2cnc(Oc3cccc(NC(=O)c4ccc(OCCN5CCOCC5)cc4)c3)cc21 [GSK-269962A] | U2OS | 121 |
| CC(=O)c1cc(-c2cc(C(=O)NC3CC3)ccc2C)c2ncccn12 | U2OS | 169 |
| Cc1nc(Cc2cccc(C(F)(F)F)c2)sc1-c1ccc(C(N)=O)nc1 [TP-024n] | U2OS | 186 |

Per the records, this compound ( `CCc1cc2c(cc1CC)CC(NC[C@H](O)c1ccc(O)c3[nH]c(=O)ccc13)C2` ) has Total Cell Count equal to 139

Per the records, this compound ( `CNc1oc(-c2cccc3ccccc23)nc1C#N` ) has Total Cell Count equal to 259

Per the records, this compound ( `Nc1ccc(C(=O)Nc2cccc(-c3nc(N4CCOCC4)c4oc5ncccc5c4n3)c2)cn1` ) has Total Cell Count equal to 191

Per the records, this compound ( `O=C(O)c1ccc2cc(-c3ccc(O)c(C45CC6CC(CC(C6)C4)C5)c3)ccc2c1` ) has Total Cell Count equal to 205

* * *

Tested on: U2OS
test.name: Multiplex assay against U2OS
Assay type: toxicity, cell-based
protocol.conditions: human, 12 h, 10 µM, compound concentration 10 uM, replicate 1
Total Cell Count values by entry
Give a plain numeric answer without units written out.

Completed entries (count: 3):
| molecule | target.under.test | experimental.value |
| --- | --- | --- |
| COc1ccc(NS(=O)(=O)c2sc3ccc(Cl)cc3c2C)cc1N1CCNCC1.Cl | U2OS | 162 |
| CCC(=O)O[C@]1(C(=O)SCF)[C@H](C)C[C@H]2[C@@H]3C[C@H](F)C4=CC(=O)C=C[C@]4(C)[C@@]3(F)[C@@H](O)C[C@@]21C [FLUTICASONE PROPIONATE] | U2OS | 155 |
| N#Cc1cnc(Nc2cc(NC[C@H]3CNCCO3)c(C(F)(F)F)cn2)cn1 [SRA-737] | U2OS | 193 |

Read the next record carefully.
Per the records, this molecule ( `CC(C)N1CCC(C)(C)c2cc(C#Cc3ccc(C(=O)O)cc3)ccc21` ) has Total Cell Count equal to 542

* * *

Test system: HEK-293T
test.name: Incucyte cell viability with HEK293T; also: filed as whole numbers so only -1 and 0 and 1 occur
Assay type: toxicity, cell-based
protocol.conditions: human, 12 h, 10 µM, compound concentration 10 uM, replicate number 1, timepoint 12 hours
Growth Rate values by entry
Give a plain numeric answer without units written out.

| compound | Growth Rate |
| --- | --- |
| COc1cc(N2CCC(N(C)C)CC2)ccc1Nc1ncc(Cl)c(Nc2ccccc2P(C)(C)=O)n1 | 0 |
| CNc1oc(-c2cccc3ccccc23)nc1C#N | 1 |

Per the records, this compound ( C[C@@H](NCCc1ccc(O)cc1)[C@@H](O)c1ccc(O)cc1.Cl (relative stereo) ) has Growth Rate equal to 0

Per the records, this compound ( `C[C@H](CO)Nc1nc(SCc2cccc(Cl)c2F)nc2[nH]c(=O)sc12` ) has Growth Rate equal to 1
